molecular target: cathepsin B (Homo sapiens, UniProt P07858); construct: purchased Calbiochem 219364; experiment: Inhibition of cathepsin B; format: biochemical; settings: Table III; 1 uM; read-out: Cat B % I @ 1 uM
Square brackets hold non-standard residues; d marks the D form. Peptide text beside a SMILES is read from it. * marks the point of attachment. Bn = c1ccc(C*)cc1; Ms = CS(=O)(=O)*
parameter: inhibition at 1 µM (%)

Examples with answers:
compound | subjectOfTest | parameter | unit | dataValue
O=C[C@H](Cc1ccccc1)NC(=O)[C@@H](Cc1ccccc1)NS(=O)(=O)c1cccc2cccnc12 | cathepsin B (Homo sapiens, UniProt P07858) | inhibition at 1 µM | % | 100
CS(=O)(=O)NC(CCSCc1ccccc1)C(=O)N[C@H](C=O)Cc1ccccc1 (single isomer, unassigned) | cathepsin B (Homo sapiens, UniProt P07858) | inhibition at 1 µM | % | 97
Cc1ccc(S(=O)(=O)N2C[C@@H](C#N)C[C@@H]2C(=O)N[C@H](C=O)Cc2ccccc2)cc1 | cathepsin B (Homo sapiens, UniProt P07858) | inhibition at 1 µM | % | 64
CS(=O)(=O)N[C@H](COCc1ccccc1)C(=O)N[C@H](C=O)CCCCNS(=O)(=O)c1ccccc1 | cathepsin B (Homo sapiens, UniProt P07858) | inhibition at 1 µM | % | 100
CS(=O)(=O)N[C@H](Cc1ccccc1)C(=O)N[C@H](C=O)Cc1ccccc1 [Compound 70] (Ms-[dF]-Phe-aldehyde) | cathepsin B (Homo sapiens, UniProt P07858) | inhibition at 1 µM | % | 90
C[C@H](OCc1ccccc1)[C@@H](NS(C)(=O)=O)C(=O)N[C@H](C=O)Cc1ccccc1 [Compound 43] (Ms-[dT](Bn)-Phe-aldehyde) | cathepsin B (Homo sapiens, UniProt P07858) | inhibition at 1 µM | % | 98

1: CC(C)(C)OC(=O)N1CCCC[C@H](NC(=O)[C@@H](COCc2ccccc2)N(C(=O)OC(C)(C)C)S(C)(=O)=O)C1=O
2: CN(C)S(=O)(=O)N[C@H](COCc1ccccc1)C(=O)N[C@H](C=O)Cc1ccccc1
3: CCOC(OCC)[C@H](Cc1ccccc1)NC(=O)[C@@H](COCc1ccccc1)NS(C)(=O)=O
4: CS(=O)(=O)N[C@H](COCc1ccccc1)C(=O)N[C@H]1CCCCNC1=O
Falling order of inhibition at 1 µM, please. To answer, arrange all of the labels according to the requested order.
2, 1, 3, 4

1: CC(=O)Nc1ccc(S(=O)(=O)N2CCC[C@@H]2C(=O)N[C@H](C=O)Cc2ccccc2)cc1
2: O=C[C@H](Cc1ccccc1)NC(=O)[C@@H](COCc1ccccc1)NC(=O)OCc1ccccc1
Could you determine which record has the numerically smaller inhibition at 1 µM? Candidates: 1 and 2 Indicate which entry you chose by stating its label.
1

* * *

biological target: Recombinant human calpain I (Homo sapiens); construct: made in house; test: Inhibition of calpain I activity; type: biochemical; conditions: Table III; 0.1 uM
Sequence (P07384 whole entry): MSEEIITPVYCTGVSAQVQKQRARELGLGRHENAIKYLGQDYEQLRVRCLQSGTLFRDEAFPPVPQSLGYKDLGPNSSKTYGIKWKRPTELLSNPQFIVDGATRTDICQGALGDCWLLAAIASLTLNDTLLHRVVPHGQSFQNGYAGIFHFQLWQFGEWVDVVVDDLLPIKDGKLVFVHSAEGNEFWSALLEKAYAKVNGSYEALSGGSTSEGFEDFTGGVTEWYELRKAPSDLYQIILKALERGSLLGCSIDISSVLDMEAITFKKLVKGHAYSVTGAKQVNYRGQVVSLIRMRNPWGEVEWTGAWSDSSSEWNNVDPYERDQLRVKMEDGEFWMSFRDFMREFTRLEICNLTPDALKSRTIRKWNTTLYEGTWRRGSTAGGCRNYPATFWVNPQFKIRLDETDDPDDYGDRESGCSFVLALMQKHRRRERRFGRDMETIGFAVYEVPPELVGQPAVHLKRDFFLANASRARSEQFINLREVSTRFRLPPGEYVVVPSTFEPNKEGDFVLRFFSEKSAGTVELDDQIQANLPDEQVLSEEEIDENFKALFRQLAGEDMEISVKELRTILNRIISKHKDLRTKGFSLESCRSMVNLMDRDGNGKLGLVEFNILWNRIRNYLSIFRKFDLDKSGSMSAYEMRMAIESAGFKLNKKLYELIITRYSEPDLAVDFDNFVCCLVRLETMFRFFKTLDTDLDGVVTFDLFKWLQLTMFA
Square brackets hold non-standard residues; d marks the D form. Peptide text beside a SMILES is read from it. * marks the point of attachment. Tle = CC(C)(C)[C@H](N)C(=O)O; Bn = c1ccc(C*)cc1; Ms = CS(=O)(=O)*
parameter: inhibition at 0.1 µM (%)

Examples with answers:
compound | unit | inhibition at 0.1 µM
CS(=O)(=O)N[C@@H](C(=O)N[C@H](C=O)Cc1ccccc1)c1cccs1 | % | 96
CC(C)(C)[C@@H](C=O)NC(=O)[C@@H](COCc1ccccc1)NS(C)(=O)=O [Compound 111] (Ms-[dS](Bn)-[Tle]-aldehyde) | % | 27
CS(=O)(=O)N[C@H](COCc1ccccc1)C(=O)N[C@H](C=NO)Cc1ccccc1 | % | 31
O=C[C@H](Cc1ccccc1)NC(=O)[C@@H](COCc1ccccc1)NC(=O)OCc1ccccc1 | % | 68

A: O=C[C@H](Cc1ccccc1)NC(=O)[C@@H](COCc1ccccc1)NC(=O)c1ccccc1
B: O=C[C@H](Cc1ccccc1)NC(=O)[C@@H](COCc1ccccc1)NS(=O)(=O)c1ccc(F)cc1
Could you determine which record has the numerically smaller inhibition at 0.1 µM? Candidates: A and B Indicate which entry you chose by stating its label.
A
(A: 29%, B: 90%)

P: CS(=O)(=O)N[C@H](COCc1ccccc1)C(=O)N[C@H](C=NNC(N)=O)Cc1ccccc1
Q: CC(C)C[C@@H](NS(C)(=O)=O)C(=O)N[C@H](C=O)Cc1ccccc1 [Compound 86] (Ms-[dL]-Phe-aldehyde)
Could you determine which record has the numerically smaller inhibition at 0.1 µM? Candidates: P and Q Indicate which entry you chose by stating its label.
P
(P: 0%, Q: 72%)
